Reference for the values: ChEMBL document CHEMBL5230120

# METHOD_DESCRIPTION: Cytotoxicity against human HEK293 cells assessed as reduction in cell viability
# Format: toxicity, cell-based
pIC50: −log10 of the molar value.

>  <SMILES_INPUT>
C=C(C)C#CC1=C[C@@H]2O[C@@H](C(C)(C)O)C[C@]23O[C@@H]3[C@H]1O

>  <pIC50>
< 4.00

$$$$
>  <SMILES_INPUT>
COc1cc(CCCC(C)C)oc(=O)c1C

>  <pIC50>
< 4.00

$$$$
>  <SMILES_INPUT>
O=C1Nc2ccc(Cl)cc2[C@@](C#CC2CC2)(C(F)(F)F)O1

>  <pIC50>
4.39

$$$$

* * *

# Test system: Human alphaherpesvirus 1
# Type: functional, organism-based
# MEASUREMENT_SETUP: Human alphaherpesvirus 1, Vero, 72 h
QUANTITY_NAME: IC50 (µM)

>  <MOLECULE>
Nc1nc2c(ncn2COCCO)c(=O)[nH]1 [ACYCLOVIR]

>  <UNITS_OF_MEASURE>
µM

>  <EXPERIMENTAL_RESULT>
3.5

$$$$
>  <MOLECULE>
CCC(C)[C@@H]1C(=O)/C(=C(/O)[C@@H]2[C@@H]([C@@H]3O[C@H]3C)C(C)=C[C@@H]3CCC[C@H](C)[C@@H]23)C(=O)N1C (some centres undefined)

>  <UNITS_OF_MEASURE>
µM

>  <EXPERIMENTAL_RESULT>
3.08

$$$$
>  <MOLECULE>
CC1=C[C@@H]2CCC[C@H](C)[C@H]2[C@H](/C(O)=C2\C(=O)[C@@H](C(C)C)N(C)C2=O)[C@H]1[C@@H]1O[C@H]1C

>  <UNITS_OF_MEASURE>
µM

>  <EXPERIMENTAL_RESULT>
9.37

$$$$
>  <MOLECULE>
C/C=C(\C)[C@H]1C(C)=C[C@@H]2CCC[C@H](C)[C@H]2[C@@H]1/C(O)=C1\C(=O)[C@@H](C(C)C)N(C)C1=O

>  <UNITS_OF_MEASURE>
µM

>  <EXPERIMENTAL_RESULT>
3.12

$$$$

* * *

# System: Influenza A virus
# METHOD_DESCRIPTION: microbe, parasite or virus in culture
# MEASUREMENT_SETUP: H3N2, MDCK, 48 h
Catalogue of IC50 readings, one per entry.
QUANTITY_NAME: IC50 (nM)

>  <SMILES_INPUT>
COC(=O)/C(C)=C/COc1cc(=O)oc(/C=C/C=C/C=C/[C@H]2O[C@H]3O[C@H](C)[C@](C)(O)[C@@]3(C)[C@H]2O)c1C

>  <TESTED_SYSTEM>
Influenza A virus

>  <UNITS_OF_MEASURE>
nM

>  <EXPERIMENTAL_RESULT>
8.9

$$$$
>  <SMILES_INPUT>
CC[C@H]1O[C@@H]2O[C@H](/C=C/C=C/C=C/c3oc(=O)cc(OC/C=C(\C)C(=O)OC)c3C)[C@H](O)[C@]2(C)[C@@]1(C)O

>  <TESTED_SYSTEM>
Influenza A virus

>  <UNITS_OF_MEASURE>
nM

>  <EXPERIMENTAL_RESULT>
6.2

$$$$

* * *

Catalogue of pIC50 readings, one per entry.
# Tested on: Respiratory syncytial virus
# Type: functional, organism-based
# MEASUREMENT_SETUP: human respiratory syncytial virus, HEp-2
pIC50: −log10 of the molar value.
QUANTITY_NAME: pIC50

>  <SMILES_INPUT>
CCCCC/C=C/C1=C(CO)[C@@H]2OC(C)(C)[C@@H](O)C[C@]2(O)[C@H](O)[C@@H]1O

>  <QUANTITY_NAME>
pIC50

>  <EXPERIMENTAL_RESULT>
4.14

$$$$
>  <SMILES_INPUT>
CC(=O)[C@H]1CC[C@H]2C3=CC(=O)[C@@]4(C)C[C@H](O)CC[C@]4(C)[C@H]3CC[C@]12C

>  <QUANTITY_NAME>
pIC50

>  <EXPERIMENTAL_RESULT>
6.92

$$$$
>  <SMILES_INPUT>
CCCCC/C=C/C1=C(CO)[C@@H]2OC(C)(C)[C@@H](O)C[C@@]23O[C@H]3[C@@H]1O

>  <QUANTITY_NAME>
pIC50

>  <EXPERIMENTAL_RESULT>
4.52

$$$$
>  <SMILES_INPUT>
NC(=O)c1ncn([C@@H]2O[C@H](CO)[C@@H](O)[C@H]2O)n1

>  <QUANTITY_NAME>
pIC50

>  <EXPERIMENTAL_RESULT>
7.10

$$$$

* * *

# System: Western equine encephalitis virus
# METHOD_DESCRIPTION: Antiviral activity against Western equine encephalomyelitis virus Cba-87 infected in Golden hamster BSR-T7/5 cells assessed as reduction in viral RNA replication by RT-PCR analysis
# Format: functional, organism-based
# MEASUREMENT_SETUP: Cba-87, BSR-T7/5

>  <COMPOUND>
CCCCCCCC[C@H]1C(=O)O[C@H](C)[C@H](NC(=O)c2cccc(NC=O)c2O)C(=O)O[C@@H](C)[C@@H]1OC(=O)CC(C)CC (stereo partly specified)

>  <IC50>
3 nM

$$$$

* * *

# System: Human alphaherpesvirus 1
# Type: functional, organism-based
# MEASUREMENT_SETUP: Human alphaherpesvirus 1, Vero, 72 h
pIC50: −log10 of the molar value.

>  <SMILES_INPUT>
C[C@@H]1C/C=C/C(=O)C/C=C/[C@H](O)CC(=O)O1

>  <pIC50>
6.35

$$$$
